system: Rattus norvegicus; test: Antihypertensive activity rating in conscious SHR after 6 hr post dose at 10 mg/kg (po); format: functional
outcomeMeasure: Activity
# answer = number (no unit)

Record COc1cccc(/C=C/C(=O)N2CCN(c3nc(N)c4cc(OC)c(OC)cc4n3)CC2)c1.Cl / Rattus norvegicus, Activity recorded as 1

The observed Activity for COc1cc2nc(N3CCN(C(=O)/C=C/c4cccc([N+](=O)[O-])c4)CC3)nc(N)c2cc1OC.Cl when tested with Rattus norvegicus stands at 0

Entry COc1cc2nc(N3CCN(C(=O)/C=C/c4ccc(Cl)cc4)CC3)nc(N)c2cc1OC.Cl , tested on Rattus norvegicus, has a reported Activity of 1

The reported Activity value, Rattus norvegicus, for COc1cc2nc(N3CCN(C(=O)/C=C/c4ccc(C)o4)CC3)nc(N)c2cc1OC.Cl reads 1

Entry COc1cc2nc(N3CCN(C(=O)/C=C/c4ccc(Cl)s4)CC3)nc(N)c2cc1OC.Cl : Activity on Rattus norvegicus = 1

Considering COc1cc2nc(N3CCN(C(=O)/C=C/c4ccc(Cl)c(Cl)c4)CC3)nc(N)c2cc1OC , its Activity with Rattus norvegicus was recorded as 0

Rattus norvegicus Activity of COc1cc2nc(N3CCN(C(=O)/C=C/c4ccc(Br)cc4)CC3)nc(N)c2cc1OC.Cl is 1

Test item COc1ccccc1/C=C/C(=O)N1CCN(c2nc(N)c3cc(OC)c(OC)cc3n2)CC1.Cl ; Rattus norvegicus; reported Activity was 0

Entry COc1ccc(/C=C/C(=O)N2CCN(c3nc(N)c4cc(OC)c(OC)cc4n3)CC2)cc1 : Activity on Rattus norvegicus = 2

Rattus norvegicus data for COc1cc2nc(N3CCN(C(=O)/C=C/c4ccc(OC)c(OC)c4OC)CC3)nc(N)c2cc1OC ; its Activity: 1

Item COc1cc2nc(N3CCN(C(=O)/C=C/c4ccccc4C)CC3)nc(N)c2cc1OC was tested on Rattus norvegicus; the reported Activity is 2

Note to self: Activity of COc1cc2nc(N3CCN(C(=O)/C=C/c4cccc(C(F)(F)F)c4)CC3)nc(N)c2cc1OC with Rattus norvegicus was 0

* * *

system: Rattus norvegicus; experiment: Antihypertensive activity rating in conscious SHR after 24 hr post dose at 1 mg/kg (po); format: functional
outcomeMeasure: Activity
Format: numeric value only, no unit, no commentary.

Just so you know, measured Activity for COc1ccc(/C=C/C(=O)N2CCN(c3nc(N)c4cc(OC)c(OC)cc4n3)CC2)cc1 came out at 0

Activity for COc1cc2nc(N3CCN(C(=O)/C=C/c4ccccc4)CC3)nc(N)c2cc1OC is 0

According to the records, this molecule COc1cc2nc(N3CCN(C(=O)/C=C/c4ccsc4)CC3)nc(N)c2cc1OC displays Activity of 0

For record COc1cc2nc(N3CCN(C(=O)/C=C/c4ccccc4C)CC3)nc(N)c2cc1OC the listed Activity is 0

// recorded Activity for COc1cc2nc(N3CCN(C(=O)c4ccco4)CC3)nc(N)c2cc1OC.Cl [PRAZOSIN HYDROCHLORIDE] : 0

Memo: COc1cc2nc(N3CCN(C(=O)/C=C/c4ccco4)CC3)nc(N)c2cc1OC.Cl , reported Activity: 0

The reported value for COc1cc2nc(N3CCN(C(=O)/C=C/c4cccs4)CC3)nc(N)c2cc1OC in terms of Activity is 0

The value of Activity measured for the molecule COc1cc2nc(N3CCN(C(=O)/C=C/c4ccc(C)o4)CC3)nc(N)c2cc1OC.Cl turned out to be 0

Looking up COc1cc2nc(N3CCN(C(=O)/C(C)=C/c4ccco4)CC3)nc(N)c2cc1OC.Cl , I see its Activity listed as 0

# Activity of COc1cc2nc(N3CCN(C(=O)/C=C/c4sccc4C)CC3)nc(N)c2cc1OC.Cl = 0

Activity reading for COc1cc2nc(N3CCN(C(=O)/C(C)=C/c4cccs4)CC3)nc(N)c2cc1OC.Cl : 0

Sample CCOc1ccc(/C=C/C(=O)N2CCN(c3nc(N)c4cc(OC)c(OC)cc4n3)CC2)cc1 ; Activity observed: 0

Input COc1cc2nc(N3CCN(C(=O)/C(C)=C/c4ccccc4)CC3)nc(N)c2cc1OC.Cl . Output Activity: 0

* * *

For each entry below, report its Activity value.
system: Rattus norvegicus; experiment: Antihypertensive activity rating in conscious SHR after 3 hr post dose at 0.3 mg/kg (po); type: functional
Please state the value as a number alone, without comment.

Entry COc1cc2nc(N3CCN(C(=O)/C=C/c4ccsc4)CC3)nc(N)c2cc1OC , Activity reported as 1

compound COc1cc2nc(N3CCN(C(=O)/C=C/c4cccs4)CC3)nc(N)c2cc1OC , Activity observed: 0

// Activity value for CCOc1ccc(/C=C/C(=O)N2CCN(c3nc(N)c4cc(OC)c(OC)cc4n3)CC2)cc1 : 0

Reported Activity for COc1cc2nc(N3CCN(C(=O)/C=C/c4ccccc4)CC3)nc(N)c2cc1OC was 0

Entry COc1cc2nc(N3CCN(C(=O)/C=C/c4ccco4)CC3)nc(N)c2cc1OC.Cl , Activity reported as 1

Activity in this record for COc1cc2nc(N3CCN(C(=O)c4ccco4)CC3)nc(N)c2cc1OC.Cl [PRAZOSIN HYDROCHLORIDE] : 1

* * *

system: Rattus norvegicus; assay: Antihypertensive activity rating in conscious SHR after 1 hr post dose at 3 mg/kg (po); assay type: functional
outcomeMeasure: Activity
The response must contain the number and no unit.

Entry COc1cc2nc(N3CCN(C(=O)/C=C/c4ccc(C)s4)CC3)nc(N)c2cc1OC.Cl , Activity reported as 0

Lookup result for COc1cc2nc(N3CCN(C(=O)/C(C)=C/c4cccs4)CC3)nc(N)c2cc1OC.Cl ; measured Activity: 3

The reported value for COc1cc2nc(N3CCN(C(=O)/C=C/c4ccccc4C)CC3)nc(N)c2cc1OC in terms of Activity is 1

Field Activity (entry COc1cc2nc(N3CCN(C(=O)/C=C/c4cccs4)CC3)nc(N)c2cc1OC ) reads 2

response.value for COc1cc2nc(N3CCN(C(=O)/C=C/c4ccco4)CC3)nc(N)c2cc1OC.Cl (field: Activity) = 3

Data point: COc1cc2nc(N3CCN(C(=O)/C=C/c4ccsc4)CC3)nc(N)c2cc1OC ; Activity = 2

* * *

tested on: Rattus norvegicus; test: Maximum percent decrease in blood pressure in SHR dosed at 0.3 mg/kg (hour post dose in parentheses); type: functional
outcomeMeasure: Decrease (%)
# value in %; strip the unit string

The reported value for COc1cc2nc(N3CCN(C(=O)c4ccco4)CC3)nc(N)c2cc1OC.Cl [PRAZOSIN HYDROCHLORIDE] in terms of Decrease is 19

The compound CCOc1ccc(/C=C/C(=O)N2CCN(c3nc(N)c4cc(OC)c(OC)cc4n3)CC2)cc1 showed Decrease equal to 13

Please fill in: Decrease reported for COc1cc2nc(N3CCN(C(=O)/C=C/c4ccccc4)CC3)nc(N)c2cc1OC = 10

The compound listed as COc1cc2nc(N3CCN(C(=O)/C=C/c4cccs4)CC3)nc(N)c2cc1OC has a reported Decrease of 10

The recorded Decrease for entry COc1cc2nc(N3CCN(C(=O)/C=C/c4ccco4)CC3)nc(N)c2cc1OC.Cl equals 15

The recorded Decrease for COc1cc2nc(N3CCN(C(=O)/C=C/c4ccsc4)CC3)nc(N)c2cc1OC is 11

* * *

test system: Rattus norvegicus; test: Antihypertensive activity rating in conscious SHR after 1 hr post dose at 10 mg/kg (po); type: functional
outcomeMeasure: Activity
Number only, please.

Lab note: COc1cc2nc(N3CCN(C(=O)/C=C/c4ccc(Cl)s4)CC3)nc(N)c2cc1OC.Cl gave Activity of 1

The reported value for CCOc1ccccc1/C=C/C(=O)N1CCN(c2nc(N)c3cc(OC)c(OC)cc3n2)CC1.Cl in terms of Activity is 0

Record CO.COc1cc(/C=C/C(=O)N2CCN(c3nc(N)c4cc(OC)c(OC)cc4n3)CC2)cc(OC)c1 . Reported Activity: 0

The molecule listed as COc1cc2nc(N3CCN(C(=O)/C=C/c4sccc4C)CC3)nc(N)c2cc1OC.Cl has a reported Activity of 2

Quick note, Activity for COc1cc2nc(N3CCN(C(=O)/C=C/c4ccc(C)o4)CC3)nc(N)c2cc1OC.Cl landed at 1

* * *

system: Rattus norvegicus; assay: Antihypertensive activity rating in conscious SHR after 6 hr post dose at 10 mg/kg (po); assay type: functional
outcomeMeasure: Activity

For the compound COc1cc2nc(N3CCN(C(=O)/C=C/c4sccc4C)CC3)nc(N)c2cc1OC.Cl , the measured Activity on Rattus norvegicus was 2

Test item COc1cc2nc(N3CCN(C(=O)/C=C/c4ccc(C(C)C)cc4)CC3)nc(N)c2cc1OC ; Rattus norvegicus; reported Activity was 0

Entry CO.COc1cc(/C=C/C(=O)N2CCN(c3nc(N)c4cc(OC)c(OC)cc4n3)CC2)cc(OC)c1 , Rattus norvegicus data, Activity value: 0

Per the reported Rattus norvegicus data, COc1cc2nc(N3CCN(C(=O)/C=C/c4cccc(C)c4)CC3)nc(N)c2cc1OC has Activity of 1

Record COc1cc2nc(N3CCN(C(=O)/C=C/c4ccc(OC(C)C)cc4)CC3)nc(N)c2cc1OC.Cl / Rattus norvegicus, Activity recorded as 1
